# target or system: OAT1 (Homo sapiens)
# Sequence (Q4U2R8 whole entry): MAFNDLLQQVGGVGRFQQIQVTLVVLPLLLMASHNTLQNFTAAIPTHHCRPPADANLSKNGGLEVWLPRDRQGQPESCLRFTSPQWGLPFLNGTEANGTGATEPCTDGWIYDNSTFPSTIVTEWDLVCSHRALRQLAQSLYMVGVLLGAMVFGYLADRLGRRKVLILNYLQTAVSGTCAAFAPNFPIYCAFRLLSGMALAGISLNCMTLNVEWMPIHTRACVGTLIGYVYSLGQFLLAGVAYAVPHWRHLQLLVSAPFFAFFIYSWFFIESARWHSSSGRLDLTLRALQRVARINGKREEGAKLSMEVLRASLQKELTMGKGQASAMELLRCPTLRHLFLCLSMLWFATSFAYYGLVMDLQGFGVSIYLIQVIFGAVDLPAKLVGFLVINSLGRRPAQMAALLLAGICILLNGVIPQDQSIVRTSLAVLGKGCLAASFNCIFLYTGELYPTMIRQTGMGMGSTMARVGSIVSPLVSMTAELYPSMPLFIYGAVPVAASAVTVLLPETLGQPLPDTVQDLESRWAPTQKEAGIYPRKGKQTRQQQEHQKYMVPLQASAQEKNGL
# experiment description: Transporter inhibition using transfected HEK293 cells
pIC50: −log10 of the molar value.
property measured: pIC50

Qu. Supply reported pIC50 belonging to this compound: COc1cccc2[nH]c(C(=O)N[C@@H](CC(C)C)C(=O)N[C@@H](C[C@@H]3CCNC3=O)C(=O)CO)cc12
Ans. < 3.52

###

# target or system: CYP2D6 (Homo sapiens, UniProt P10635)
# Sequence (P10635 whole entry): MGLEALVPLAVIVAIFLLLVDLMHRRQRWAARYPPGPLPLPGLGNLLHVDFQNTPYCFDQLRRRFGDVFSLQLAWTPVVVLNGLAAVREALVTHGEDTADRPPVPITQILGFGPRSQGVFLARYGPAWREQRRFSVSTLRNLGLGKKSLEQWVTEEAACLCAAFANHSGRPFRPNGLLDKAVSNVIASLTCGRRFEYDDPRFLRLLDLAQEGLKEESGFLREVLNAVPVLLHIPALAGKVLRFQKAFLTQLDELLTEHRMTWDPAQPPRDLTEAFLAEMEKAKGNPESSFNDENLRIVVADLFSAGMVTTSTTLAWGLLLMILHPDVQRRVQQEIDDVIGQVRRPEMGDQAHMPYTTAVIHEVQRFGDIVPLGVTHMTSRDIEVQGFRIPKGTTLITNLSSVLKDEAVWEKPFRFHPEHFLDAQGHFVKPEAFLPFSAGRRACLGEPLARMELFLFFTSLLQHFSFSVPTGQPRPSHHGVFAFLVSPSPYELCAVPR
# experiment description: Reversible CYP inhibition in human liver microsomes
# assay setup: human, microsomes, pH 7.4, Percent of Control Activity, CYP 2D6, 0.158 µM, 30-Minute Preincubation
property measured: activity at 0.158 µM (%)
Lab book: enter the figure in %, no units written.

Qu. Supply reported activity at 0.158 µM belonging to this compound: COc1cccc2[nH]c(C(=O)N[C@@H](CC(C)C)C(=O)N[C@@H](C[C@@H]3CCNC3=O)C(=O)COP(=O)(O)O)cc12 [PF-07304814]
Ans. 103

###

# System: CYP3A4/5
# experiment description: Reversible CYP inhibition in human liver microsomes
# assay setup: human, human liver microsomes, pH 7.4, probe midazolam (mdz), Percent of Control Activity, CYP 3A4/5 (mdz), 0.214 µM, Zero-Minute Preincubation
property measured: activity at 0.214 µM (%)
Lab book: enter the figure in %, no units written.

Qu. Supply reported activity at 0.214 µM belonging to this molecule: COc1cccc2[nH]c(C(=O)N[C@@H](CC(C)C)C(=O)N[C@@H](C[C@@H]3CCNC3=O)C(=O)CO)cc12
Ans. 107

###

# Test system: CYP3A4/5
# experiment description: in vitro
# assay setup: human, microsomes, pH 7.4, Percent of Control Activity, CYP 3A4/5 (mdz), 2.09 µM, 30-Minute Preincubation
property measured: activity at 2.09 µM

Qu. Supply reported activity at 2.09 µM belonging to this compound: COc1cccc2[nH]c(C(=O)N[C@@H](CC(C)C)C(=O)N[C@@H](C[C@@H]3CCNC3=O)C(=O)CO)cc12
Ans. 99.7%

###

# target or system: UniProt P10632
# experiment description: Reversible CYP inhibition in human liver microsomes
# assay setup: human, microsomes, pH 7.4, Percent of Control Activity, CYP 2C8, 93.5 µM, 30-Minute Preincubation
property measured: activity at 93.5 µM (%)
Lab book: enter the figure in %, no units written.

Qu. Supply reported activity at 93.5 µM belonging to this molecule: COc1cccc2[nH]c(C(=O)N[C@@H](CC(C)C)C(=O)N[C@@H](C[C@@H]3CCNC3=O)C(=O)CO)cc12
Ans. 76.7

###

# target or system: CYP2C19 (Homo sapiens, UniProt P33261)
# Sequence (P33261 whole entry): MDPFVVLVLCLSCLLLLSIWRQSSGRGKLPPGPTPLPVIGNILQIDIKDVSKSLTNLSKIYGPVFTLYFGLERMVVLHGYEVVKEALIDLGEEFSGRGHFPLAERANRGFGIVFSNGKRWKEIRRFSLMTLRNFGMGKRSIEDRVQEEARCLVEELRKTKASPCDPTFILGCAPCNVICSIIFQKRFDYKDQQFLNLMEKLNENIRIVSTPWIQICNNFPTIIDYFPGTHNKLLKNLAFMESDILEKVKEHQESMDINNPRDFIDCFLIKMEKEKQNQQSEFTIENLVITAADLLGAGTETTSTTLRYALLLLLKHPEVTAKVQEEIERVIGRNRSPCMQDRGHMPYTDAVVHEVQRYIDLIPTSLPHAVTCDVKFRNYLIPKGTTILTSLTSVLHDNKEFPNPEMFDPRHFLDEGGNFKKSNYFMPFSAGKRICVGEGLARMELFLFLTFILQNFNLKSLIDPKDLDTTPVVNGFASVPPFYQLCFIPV
# experiment description: Reversible CYP inhibition in human liver microsomes
# assay setup: human, microsomes, pH 7.4, Percent of Control Activity, CYP 2C19, 4.48 µM, Zero-Minute Preincubation
property measured: activity at 4.48 µM (%)
Lab book: enter the figure in %, no units written.

Qu. Supply reported activity at 4.48 µM belonging to this compound: COc1cccc2[nH]c(C(=O)N[C@@H](CC(C)C)C(=O)N[C@@H](C[C@@H]3CCNC3=O)C(=O)CO)cc12
Ans. 83.6

###

# experiment description: Metabolic stability and enzyme kinetics in liver S9 (conversion to PF-00835231)
# assay setup: rat, liver S9, pH 7.5, CLint total, Rat; (vmax / KM) + CL
property measured: microsomal CLint
Remember to quote the unit after the number.

Qu. Supply reported microsomal CLint belonging to this compound: COc1cccc2[nH]c(C(=O)N[C@@H](CC(C)C)C(=O)N[C@@H](C[C@@H]3CCNC3=O)C(=O)COP(=O)(O)O)cc12 [PF-07304814]
Ans. 45.5 µL/min/mg

###

# System: CYP3A4/5
# experiment description: in vitro
# assay setup: human, microsomes, pH 7.4, Percent of Control Activity, CYP 3A4/5 (tst), 20.5 µM, 30-Minute Preincubation
property measured: activity at 20.5 µM (%)
Lab book: enter the figure in %, no units written.

Qu. Lab note: CYP3A4/5 assay, enter activity at 20.5 µM for COc1cccc2[nH]c(C(=O)N[C@@H](CC(C)C)C(=O)N[C@@H](C[C@@H]3CCNC3=O)C(=O)CO)cc12 here
Ans. 83.2

###

# experiment description: Rat pharmacokinetic study
# assay setup: male, Wistar-Hannover, rat, plasma, iv, 2 mg/kg, Vdss, Mean, PF-00835231 active dosed 2mg/kg intravenous
property measured: Vd

Qu. Supply reported Vd belonging to this compound: COc1cccc2[nH]c(C(=O)N[C@@H](CC(C)C)C(=O)N[C@@H](C[C@@H]3CCNC3=O)C(=O)CO)cc12 [PF-00835231]
Ans. 0.746 L/kg

###

# target or system: CYP2C9 (Homo sapiens)
# Sequence (P11712 whole entry): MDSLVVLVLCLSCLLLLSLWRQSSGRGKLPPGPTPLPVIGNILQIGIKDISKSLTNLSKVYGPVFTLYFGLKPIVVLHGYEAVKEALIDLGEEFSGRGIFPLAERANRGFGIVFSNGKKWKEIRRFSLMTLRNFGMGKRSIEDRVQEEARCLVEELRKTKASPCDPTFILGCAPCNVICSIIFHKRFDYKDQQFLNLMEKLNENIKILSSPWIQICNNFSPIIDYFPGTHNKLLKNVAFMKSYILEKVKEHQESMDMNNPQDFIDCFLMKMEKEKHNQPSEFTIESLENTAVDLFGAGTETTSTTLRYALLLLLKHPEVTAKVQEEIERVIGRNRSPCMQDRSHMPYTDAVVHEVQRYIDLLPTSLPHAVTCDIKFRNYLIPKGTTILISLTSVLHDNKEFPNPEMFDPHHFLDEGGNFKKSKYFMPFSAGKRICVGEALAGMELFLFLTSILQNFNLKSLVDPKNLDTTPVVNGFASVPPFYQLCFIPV
# experiment description: Reversible CYP inhibition in human liver microsomes
# assay setup: human, microsomes, pH 7.4, Percent of Control Activity, CYP 2C9, 15.8 µM, 30-Minute Preincubation
property measured: activity at 15.8 µM

Qu. Supply reported activity at 15.8 µM belonging to this compound: COc1cccc2[nH]c(C(=O)N[C@@H](CC(C)C)C(=O)N[C@@H](C[C@@H]3CCNC3=O)C(=O)COP(=O)(O)O)cc12
Ans. 98.8%

###

# target or system: CYP2C8 (Homo sapiens, UniProt P10632)
# Sequence (P10632 whole entry): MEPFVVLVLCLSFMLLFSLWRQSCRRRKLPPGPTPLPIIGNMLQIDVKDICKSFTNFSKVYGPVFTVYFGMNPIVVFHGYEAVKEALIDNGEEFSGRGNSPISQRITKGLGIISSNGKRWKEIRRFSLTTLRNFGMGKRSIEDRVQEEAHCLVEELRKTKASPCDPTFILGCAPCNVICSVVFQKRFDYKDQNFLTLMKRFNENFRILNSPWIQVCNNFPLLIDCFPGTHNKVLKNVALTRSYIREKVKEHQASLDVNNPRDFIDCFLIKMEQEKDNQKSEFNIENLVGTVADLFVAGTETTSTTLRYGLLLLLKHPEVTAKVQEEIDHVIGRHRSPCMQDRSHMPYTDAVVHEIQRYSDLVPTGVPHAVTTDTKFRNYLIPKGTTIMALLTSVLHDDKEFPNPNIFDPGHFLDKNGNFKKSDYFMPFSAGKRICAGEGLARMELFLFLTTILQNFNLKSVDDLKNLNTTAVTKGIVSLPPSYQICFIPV
# experiment description: Reversible CYP inhibition in human liver microsomes
# assay setup: human, microsomes, pH 7.4, Percent of Control Activity, CYP 2C8, 93.5 µM, Zero-Minute Preincubation
property measured: activity at 93.5 µM
Remember to quote the unit after the number.

Qu. Supply reported activity at 93.5 µM belonging to this molecule: COc1cccc2[nH]c(C(=O)N[C@@H](CC(C)C)C(=O)N[C@@H](C[C@@H]3CCNC3=O)C(=O)CO)cc12
Ans. 91.2%

###

# target or system: UniProt:P20813
# Sequence (P20813 1-491): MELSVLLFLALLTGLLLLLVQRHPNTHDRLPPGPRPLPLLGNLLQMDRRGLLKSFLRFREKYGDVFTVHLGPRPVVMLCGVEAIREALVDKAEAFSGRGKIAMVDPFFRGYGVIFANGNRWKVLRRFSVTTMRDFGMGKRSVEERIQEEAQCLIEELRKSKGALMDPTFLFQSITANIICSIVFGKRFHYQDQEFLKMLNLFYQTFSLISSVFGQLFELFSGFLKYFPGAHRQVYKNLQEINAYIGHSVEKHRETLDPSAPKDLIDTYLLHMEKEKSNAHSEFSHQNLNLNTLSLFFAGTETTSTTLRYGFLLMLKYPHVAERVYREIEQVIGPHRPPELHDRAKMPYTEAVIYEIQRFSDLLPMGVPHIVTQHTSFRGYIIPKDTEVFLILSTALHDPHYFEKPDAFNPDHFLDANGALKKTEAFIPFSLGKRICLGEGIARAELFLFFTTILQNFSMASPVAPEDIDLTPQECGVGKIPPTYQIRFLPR
# experiment description: Reversible CYP inhibition in human liver microsomes
# Assay type: in vitro ADME
# assay setup: human, human liver microsomes, pH 7.4, CYP 2B6, 2.09 µM, Zero-Minute Preincubation; read-out: Percent of Control Activity
property measured: activity at 2.09 µM (%)
Lab book: enter the figure in %, no units written.

Qu. Supply reported activity at 2.09 µM belonging to this compound: COc1cccc2[nH]c(C(=O)N[C@@H](CC(C)C)C(=O)N[C@@H](C[C@@H]3CCNC3=O)C(=O)CO)cc12
Ans. 105

###

# target or system: CYP2C19 (Homo sapiens, UniProt P33261)
# experiment description: Reversible CYP inhibition in human liver microsomes
# assay setup: human, microsomes, pH 7.4, Percent of Control Activity, CYP 2C19, 2.09 µM, 30-Minute Preincubation
property measured: activity at 2.09 µM (%)
Lab book: enter the figure in %, no units written.

Qu. Supply reported activity at 2.09 µM belonging to this compound: COc1cccc2[nH]c(C(=O)N[C@@H](CC(C)C)C(=O)N[C@@H](C[C@@H]3CCNC3=O)C(=O)CO)cc12 [PF-00835231]
Ans. 79.9

###

# experiment description: Plasma protein binding by equilibrium dialysis
# assay setup: both, Beagle, dog, plasma, pH 7.4, Individual fraction unbound, dog plasma, Beagle, male and female, 3.44 uM, Day 3
property measured: fraction unbound at 6 h, 3.44 uM
The reply should be a number, written without any unit.

Qu. Supply reported fraction unbound at 6 h, 3.44 uM belonging to this molecule: COc1cccc2[nH]c(C(=O)N[C@@H](CC(C)C)C(=O)N[C@@H](C[C@@H]3CCNC3=O)C(=O)COP(=O)(O)O)cc12
Ans. 0.303

###

# Tested on: CYP3A4/5
# experiment description: Reversible CYP inhibition in human liver microsomes
# assay setup: human, human liver microsomes, pH 7.4, probe testosterone (6β-hydroxylation), at approximately KM, IC50 (confidence interval), Testosterone 6β-hydroxylation; T0
property measured: IC50 (µM)
Lab book: enter the figure in µM, no units written.

Qu. Lab note: CYP3A4/5 assay, enter IC50 for COc1cccc2[nH]c(C(=O)N[C@@H](CC(C)C)C(=O)N[C@@H](C[C@@H]3CCNC3=O)C(=O)CO)cc12 here
Ans. 108
